Listed here: items and their measured EC50.
- Test system: MCF7
- PROTOCOL DESCRIPTION: Cytotoxicity against human MCF7 cells
- Type: functional
- RUN CONDITIONS: read-out: ED50 (the source's name)

COMPOUND	TARGET SYSTEM	EC50, µg/mL
CC(C)=CCc1c2c(c(O)c3c(=O)c4c(oc13)-c1c(O)cc(O)c3c1C(C4)C(C)(C)O3)C=CC(C)(C)O2 (stereo unspecified)	MCF7	6.7
CC1(C)C=Cc2c(cc(O)c3c(=O)cc(-c4ccc(O)c(O)c4)oc23)O1	MCF7	2.2
COc1ccc2c(c1)OC(C=C(C)C)c1c-2oc2cc(O)c(/C=C/C(C)C)c(O)c2c1=O (stereo unspecified)	MCF7	6
CC1(C)C=Cc2c(cc(O)c3c(=O)c4c(oc23)-c2c(O)cc(O)c3c2C(C4)C(C)(C)O3)O1 (stereo unspecified)	MCF7	7.7
COc1cc2oc(-c3ccc(O)cc3O)c(CC=C(C)C)c(=O)c2c(O)c1/C=C/C(C)C	MCF7	3.3
CC(C)=CCc1c(-c2cc(O)c(O)cc2O)oc2c3c(cc(O)c2c1=O)OC(C)(C)C=C3	MCF7	2.2
